target: Polyunsaturated fatty acid 5-lipoxygenase (Homo sapiens, UniProt P09917); test: Inhibition of 5-lipoxygenase in human neutrophils assessed as inhibition of A23187-induced product formation using arachidonic acid as substrate preincubated for 15 mins followed by substrate and A23187 addition measured after 10 mins by RP-HPLC method
value type: IC50 (µM)

> print(dat)
                            molecule  reported.measurement
1  COC1=CC(=O)C(=O)C(CCCCCCCCO)=C1OC                  0.15
2   CCCCCCCCCCCCc1c(O)c(O)cc(OC)c1OC                  0.09

I = COC1=CC(=O)C(OC)=C(CCCCCCCCCCCO)C1=O
II = COC1=CC(=O)C(=O)C(CCCCCCCCCCCO)=C1OC
III = CCCCCCCCCCCc1c(O)c(O)cc(OC)c1OC
IV = COC1=CC(=O)C(OC)=C(C(CCCCCCCCCO)OC(C)=O)C1=O (configuration not stated)
V = COC1=CC(=O)C(OC)=C(C(O)CCCCCCCCCO)C1=O (configuration not stated)
Q: Highest IC50 first, then in falling order down to the smallest. Give the labels in the order specified.
Ans: IV, V, I, II, III
(IV: 1.62 µM, V: 0.66 µM, I: 0.2 µM, II: 0.12 µM, III: 0.03 µM)

###

Molecular target: Polyunsaturated fatty acid 5-lipoxygenase (Homo sapiens, UniProt P09917)
Sequence (P09917 whole entry): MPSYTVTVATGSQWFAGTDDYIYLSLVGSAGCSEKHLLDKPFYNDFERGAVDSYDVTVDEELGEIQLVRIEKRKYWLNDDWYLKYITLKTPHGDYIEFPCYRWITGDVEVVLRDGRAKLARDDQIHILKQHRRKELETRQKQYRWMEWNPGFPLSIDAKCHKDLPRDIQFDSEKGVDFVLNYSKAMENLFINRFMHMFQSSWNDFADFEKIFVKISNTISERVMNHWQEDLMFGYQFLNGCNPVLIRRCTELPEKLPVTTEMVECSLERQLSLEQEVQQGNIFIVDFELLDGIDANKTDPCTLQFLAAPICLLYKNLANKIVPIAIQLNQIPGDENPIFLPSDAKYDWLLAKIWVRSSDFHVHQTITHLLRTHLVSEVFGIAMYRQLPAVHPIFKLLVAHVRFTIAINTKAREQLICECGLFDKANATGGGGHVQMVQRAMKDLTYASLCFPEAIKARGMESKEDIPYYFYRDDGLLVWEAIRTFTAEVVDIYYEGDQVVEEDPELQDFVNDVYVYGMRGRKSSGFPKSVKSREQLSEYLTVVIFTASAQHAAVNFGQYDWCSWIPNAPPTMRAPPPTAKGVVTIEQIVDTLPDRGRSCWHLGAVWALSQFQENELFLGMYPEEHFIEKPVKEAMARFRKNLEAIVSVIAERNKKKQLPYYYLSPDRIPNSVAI
Assay: Inhibition of recombinant human 5-lipoxygenase expressed in Escherichia coli BL21 using arachidonic acid as substrate preincubated for 15 mins followed by substrate addition measured after 10 mins by RP-HPLC method
value type: IC50 (µM)

Some solved entries appear below for comparison.
> print(dat)
                           input.smiles                             target.system  reported.measurement
1  COC1=CC(=O)C(OC)=C(CCCCCCCCCCCO)C1=O  Polyunsaturated fatty acid 5-lipoxygenase (Homo sapiens, UniProt P09917)                  1.51
2      CCCCCCCCCCCCCc1c(O)c(O)cc(OC)c1O  Polyunsaturated fatty acid 5-lipoxygenase (Homo sapiens, UniProt P09917)                  0.29
3      CCCCCCCCCCCCc1c(O)c(O)cc(OC)c1OC  Polyunsaturated fatty acid 5-lipoxygenase (Homo sapiens, UniProt P09917)                  0.24
4     COC1=CC(=O)C(OC)=C(CCCCCCCCO)C1=O  Polyunsaturated fatty acid 5-lipoxygenase (Homo sapiens, UniProt P09917)                  1.84

P = COC1=CC(=O)C(=O)C(CCCCCCCCO)=C1OC
Q = COC1=CC(=O)C(OC)=C(CCCCCCCCCCO)C1=O
Q: Which numeric IC50 is bigger, that of P or that of Q ? Pick one; state its label.
Ans: Q
(Q: 1.75 µM, P: 0.22 µM)

###

Target: Polyunsaturated fatty acid 5-lipoxygenase (Homo sapiens, UniProt P09917)
Sequence (P09917 whole entry): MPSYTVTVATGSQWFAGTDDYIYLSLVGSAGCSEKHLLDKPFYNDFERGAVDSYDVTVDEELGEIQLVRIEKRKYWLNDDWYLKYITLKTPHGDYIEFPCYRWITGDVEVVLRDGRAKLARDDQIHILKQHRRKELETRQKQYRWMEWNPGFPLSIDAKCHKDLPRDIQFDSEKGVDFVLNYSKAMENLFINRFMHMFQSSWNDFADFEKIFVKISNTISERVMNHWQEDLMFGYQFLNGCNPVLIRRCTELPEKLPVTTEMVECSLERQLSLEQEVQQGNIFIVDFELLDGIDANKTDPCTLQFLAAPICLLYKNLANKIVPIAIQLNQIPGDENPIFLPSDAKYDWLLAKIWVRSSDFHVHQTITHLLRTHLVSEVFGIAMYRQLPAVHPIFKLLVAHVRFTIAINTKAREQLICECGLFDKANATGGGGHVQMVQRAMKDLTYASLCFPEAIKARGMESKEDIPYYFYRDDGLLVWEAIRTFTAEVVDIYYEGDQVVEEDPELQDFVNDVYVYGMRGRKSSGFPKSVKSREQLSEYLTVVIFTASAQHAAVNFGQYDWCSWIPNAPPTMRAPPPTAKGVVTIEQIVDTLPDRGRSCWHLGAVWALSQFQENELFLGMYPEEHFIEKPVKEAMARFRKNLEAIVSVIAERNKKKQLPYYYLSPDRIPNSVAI
Assay: Inhibition of recombinant human 5-lipoxygenase expressed in Escherichia coli BL21 using arachidonic acid as substrate preincubated for 15 mins followed by substrate addition measured after 10 mins by RP-HPLC method
value type: IC50 (nM)

Some solved cases for reference:
> print(dat)
                                   compound  reported.measurement
1       COC1=CC(=O)C(=O)C(CCCCCCCCCCO)=C1OC                  1080
2      COC1=CC(=O)C(=O)C(CCCCCCCCCCCO)=C1OC                  1960
3  COC1=CC(=O)C(OC)=C(C(O)CCCCCCCCCO)C1=O (configuration not stated)                  1460

P = CCCCCCCCCCCCCc1c(O)c(OC)cc(O)c1OC
Q = CCCCCCCCCCCc1c(O)c(O)cc(OC)c1OC
Q: Dear colleague, could you let me know whether P or Q has the lower recorded IC50? Thanks. Refer to your chosen item by its label in the answer.
Ans: Q
(Q: 100 nM, P: 260 nM)

I = CCCCCCCCCCCCCc1c(O)c(O)cc(OC)c1OC
II = COC1=CC(=O)C(OC)=C(C(CCCCCCCCCO)OC(C)=O)C1=O (configuration not stated)
Q: Returns: the label, I or II , whose recorded IC50 is the lower number. # respond with the chosen item's label
Ans: I
